- System: Mus musculus
- method-description: In vivo dose(sc) inhibiting systemic infections caused by Staphylococcus aureus NCTC 10649 in mice.
- Type: functional
recorded-endpoint: ED50 (mg/kg)
Give the value, in units of mg/kg, as a plain number.

{"compound": "O=C(O)c1cn(-c2ccc(F)cc2)c2nc(N3CCNCC3)c(F)cc2c1=O", "tested-target": "Mus musculus", "ED50 [mg/kg]": 1.6}
{"compound": "NC1CCN(c2nc3c(cc2F)c(=O)c(C(=O)O)cn3-c2ccc(F)cc2)C1 (stereo not given)", "tested-target": "Mus musculus", "ED50 [mg/kg]": 0.5}
{"compound": "O=C(O)c1cn(-c2ccc(F)cc2F)c2nc(N3CCNCC3)c(F)cc2c1=O", "tested-target": "Mus musculus", "ED50 [mg/kg]": 0.6}
{"compound": "NC1CCN(c2nc3c(cc2F)c(=O)c(C(=O)O)cn3-c2ccc(F)cc2F)C1 (stereo not given)", "tested-target": "Mus musculus", "ED50 [mg/kg]": 0.2}

Now look at this entry.
Asked: May I ask what ED50 has been recorded for Cl.O=C(O)c1cn(-c2ccc(F)cc2)c2cc(N3CCNCC3)c(F)cc2c1=O [SARAFLOXACIN HYDROCHLORIDE] ?
Given back: 1.6

* * *

- System: Streptococcus pyogenes
- method-description: In vitro antibacterial activity against Streptococcus pyogenes 930
- Assay type: functional
Label Y when MIC is strictly below 2 µg/mL; at or above that, label N.

Known results for compounds:
{"compound": "O=C(O)c1cn(-c2ccc(F)cc2)c2nc(N3CCNCC3)c(F)cc2c1=O", "discrete-label": "Y"}
{"compound": "CC1CN(c2nc3c(cc2F)c(=O)c(C(=O)O)cn3-c2ccc(F)cc2)CCN1 (centres undefined)", "discrete-label": "N"}
{"compound": "O=C(O)c1cn(-c2ccccc2)c2nc(N3CCNCC3)c(F)cc2c1=O", "discrete-label": "N"}
{"compound": "NC1CCN(c2nc3c(cc2F)c(=O)c(C(=O)O)cn3-c2ccc(F)cc2F)C1 (centres undefined)", "discrete-label": "Y"}
{"compound": "Cl.O=C(O)c1cn(-c2ccc(F)cc2)c2cc(N3CCNCC3)c(F)cc2c1=O [SARAFLOXACIN HYDROCHLORIDE]", "discrete-label": "Y"}

Asked: Quick check: MIC of O=C(O)c1cn(-c2ccc(F)cc2)c2nc(N3CCC(O)C3)c(F)cc2c1=O (centres undefined) under 2 µg/mL?
Given back: Y

Asked: Please let me know if CC1CN(c2nc3c(cc2F)c(=O)c(C(=O)O)cn3-c2ccc(F)cc2F)CCN1 (centres undefined) shows MIC below 2 µg/mL.
Given back: Y

Asked: API: query returns whether the compound falls strictly under 2 µg/mL in MIC. Query: NC1CCN(c2nc3c(cc2F)c(=O)c(C(=O)O)cn3-c2ccc(F)cc2)C1 (centres undefined)
Given back: Y

Asked: Just wondering, is MIC of O=C(O)c1cn(-c2ccc(F)cc2F)c2nc(N3CCNCC3)c(F)cc2c1=O below 2 µg/mL?
Given back: Y

* * *

- Test system: Mus musculus
- method-description: In vivo dose(sc) inhibiting systemic infections caused by Escherichia coli Juhl in mice.
- Assay type: functional
Reported ED50 is given for each of the following compounds.
Please give a number only; it is taken to be in mg/kg.

Below: 3 compounds and their reported ED50.
{"compound": "O=C(O)c1cn(-c2ccc(F)cc2)c2nc(N3CCNCC3)c(F)cc2c1=O", "endpoint-unit": "mg/kg", "numeric-value": 1}
{"compound": "CC1CN(c2nc3c(cc2F)c(=O)c(C(=O)O)cn3-c2ccc(F)cc2F)CCN1 (centres undefined)", "endpoint-unit": "mg/kg", "numeric-value": 1.4}
{"compound": "Cl.O=C(O)c1cn(-c2ccc(F)cc2)c2cc(N3CCNCC3)c(F)cc2c1=O [SARAFLOXACIN HYDROCHLORIDE]", "endpoint-unit": "mg/kg", "numeric-value": 0.6}

Asked: Request - read-out ED50 | tested on Mus musculus | compound NC1CCN(c2nc3c(cc2F)c(=O)c(C(=O)O)cn3-c2ccc(F)cc2F)C1 (centres undefined)
Given back: 0.2
